meta.source: patent US20250027068

Enzyme Activity Endpoint Assay (purified): Fab'2 by entry:
biological target: pooled human IgG (human IgG1,2,3 and 4)
Endpoint: Enzyme Activity Endpoint Assay (purified): Fab'2 (ng/µL)

{"Protein": "PRT-294 (protein) MVTSVWTKGVTPPADFTQGEDVFHAPYDANQGWYDITKTFNGKDDLLCGAATAGNMLHWWFDQNKEYIEAYLKKHPEKQKIMFGDQELLDVRKAINTKGSQKNSELFNYFRDKAFPNLSARRLGVMPDLVLDMFINGYYLNVTKTQTTDVNRTYQEKDKRGGIFDAVFTRGDQSKLLTSRHDFKEKGLKEISDLIKQELTEGKALGLSHTYANVRISHVINLWGADFDSDGNLKAIYVTDSDSNASIGMKKYGVGVNSAGKVAISAKEIKEDNIGAQVLGLFTLSTGQDIWNQTN", "Units text": "ng/µL", "Reading": 651}
{"Protein": "PRT-326 (protein) MTITSVWTKGVTPPTPEDFRENNEDVLHAPYVANQGWYDITKTFDGKDNLLCGAATAGNMLHWWFDQNKEEIERYLKKHPEKQKIIFGNQELFDVKAAIDTKDSQTNSKLFDYFRDKAFPNLSARQLGVMPDLVLDMFINGYYLNLGKTQSTDVNRPYQDKDKRGGIFDAVFTRGDQTTLLTARHDLKNKGLNEISDLIKQELTEGKALALSHTYANVRINHVINLWGADFDAEGELIAIYVTDSDANPSIGMKKYFVGRNANGKVAISAKKIEGDNIGAQVLGLFTLSTGQDQWQKLS", "Units text": "ng/µL", "Reading": 588}
{"Protein": "PRT-366 (protein) MSQTEDSESLQRLRDIEDFQAEKEKQNVVYTKWLDGVDVKDHDFRKIVDGNSAYYATPLLNGRGFYDINKDFNRDNDKCAAAVAANMFHYWLDRNRDNVDRFLRQNPEKHGIIELPDGQLKLSDFLNTYESDDGYRDKSKLFDFISNNFNGPVWTDKLLDNYINGYAYNYKYGRTIEDSTKNTSKINFFKEVFNEKILTNNHSIRNQNEFSVLLSEALYTGKAIGLSYGPAGLRHSLGHIISVWGADLDADGNVVAIYVTDSDDKKLTIGDERVGLKRYKISTDDEGRLRLTAYEETHNTGGQVRGLWTLDTGKQAWADYFDKTEQTGTDQAEQ", "Units text": "ng/µL", "Reading": 0}
{"Protein": "PRT-320 (protein) MTITSVWTKGVTPPTPEDFRENNEDVLHAPYVANQGWYDITKTFDGKDNLLCGAATAGNMLHWWFDQNKEEIERYLKKHPEKQKIIFGNQELFDVKAAIDTKDSQTNSKLFDYFRDKAFPNLSARQLGVMPDLVLDMFINGYYLNLGKTQSTDVNRPYQDKDKRGGIFDAVFTRGDQTTLLTARHDLKNKGLNEISDLIKQELTEGKALALSHTYANVRINHVINLWGADFDAEGNLIAIYVTDSDANASIGMKKYFVGRNANGKVAISAKKIEGDNIGAQVLGLFTLSTGQDQWQKLS", "Units text": "ng/µL", "Reading": 778}
